System: HEK-293T
Assay: Multiplex assay against HEK293T;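 note: share of the cells with healthy nuclei that show this phenotype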
Type: toxicity, cell-based
Details: human, 24 h, 10 µM, compound concentration 10 uM, replicate 2
Consider the following compounds; for each one, report its Population Tubulin-Different-Phenotype (%).
One number for each entry, in %.

Worked examples, 2 compounds total:
* Cc1ccc2nc(NCCN)c3ncc(C)n3c2c1.O=C(O)C(F)(F)F.O=C(O)C(F)(F)F | 19
* Cl.Oc1ccc2c3c1O[C@H]1c4[nH]c5c(c4C[C@@]4(O)[C@@H](C2)N(CC2CC2)CC[C@]314)C[C@@]1(O)[C@H]2Cc3ccc(O)c4c3[C@@]1(CCN2CC1CC1)[C@H]5O4 | 23

Consider the following items and state reported Population Tubulin-Different-Phenotype (%) for each.
1. CN1CCC(=C2c3ccccc3CC(=O)c3sccc32)CC1.O=C(O)/C=C/C(=O)O [KETOTIFEN FUMARATE]
2. CCn1c(=O)c(-c2ccc(-c3cncs3)cc2Cl)cc2cnc(Nc3ccc(N4CCN(C)CC4)cc3)nc21
3. CCOC(=O)c1c(C)[nH]c2ccc3c(c12)CN1CCc2cc(OC)ccc2C1O3 (configuration not stated)
4. CNC(=O)c1ccc(Nc2nc(OC3CCCC3)c3c(-c4ccc5nc(C)oc5c4)c[nH]c3n2)c(OC)c1
5. CCCS(=O)(=O)Nc1ccc(F)c(C(=O)c2c[nH]c3ncc(Cl)cc23)c1F
6. Cc1ccc(C(=O)Nc2cccc(C(F)(F)F)c2)cc1Nc1nc(-c2cccnc2)nc2c1cnn2C

1: 98; 2: 64; 3: 92; 4: 87; 5: 4; 6: 95
